Kindly supply the reported MIC values for the records listed here.
Tested on: Pseudomonas aeruginosa PAO1
MEASUREMENT PROTOCOL: ≥ marks a high value that may be exact or a test limit, other limits are often not marked, values filed in µg/mL are converted to µM
Give the quantity in µM, number only.

## Input Give the reported MIC for this compound. "CC[C@H](C)[C@H](NC(=O)[C@H](CCCN=C(N)N)NC(=O)[C@H](CC(C)C)NC(=O)[C@H](CCCN=C(N)N)NC(=O)[C@@H](N)C(C)C)C(=O)N[C@@H](CCCN=C(N)N)C(=O)N[C@H](C(=O)N[C@@H](C)C(N)=O)C(C)C"
## Output 10.2

## Input State its MIC: "CC[C@H](C)[C@H](NC(=O)[C@H](CCCCN)NC(=O)[C@H](CCCCN)NC(=O)[C@H](CC(C)C)NC(=O)[C@H](CC(C)C)NC(=O)CN)C(=O)N[C@@H](CCCCN)C(=O)N[C@@H](CCCN=C(N)N)C(=O)N[C@@H](CC(C)C)C(=O)N[C@@H](CC(C)C)C(N)=O"
## Output 5.92

## Input Please indicate MIC recorded for "CC[C@H](C)[C@H](NC(=O)[C@H](CCCN=C(N)N)NC(=O)[C@@H](NC(=O)[C@H](CCCN=C(N)N)NC(=O)[C@H](Cc1c[nH]c2ccccc12)NC(=O)[C@H](Cc1ccccc1)NC(=O)[C@H](Cc1ccccc1)NC(=O)[C@@H]1CCCN1)[C@@H](C)CC)C(=O)N[C@@H](CCCN=C(N)N)C(=O)N[C@@H](CCCN=C(N)N)C(N)=O"
## Output 5.53

## Input Supply reported MIC belonging to this compound: "CC[C@H](C)[C@H](NC(=O)[C@H](CCCN=C(N)N)NC(=O)[C@@H](NC(=O)[C@H](CCCN=C(N)N)NC(=O)[C@H](Cc1c[nH]c2ccccc12)NC(=O)[C@H](Cc1ccccc1)NC(=O)[C@@H]1CCCN1)[C@@H](C)CC)C(=O)N[C@@H](CCCN=C(N)N)C(=O)N[C@@H](CCCN=C(N)N)C(N)=O"
## Output 24.6

## Input Return value of MIC for input "CC(C)C[C@H](NC(=O)[C@H](CCCN=C(N)N)NC(=O)[C@@H](NC(=O)[C@H](CCCN=C(N)N)NC(=O)[C@@H](N)CC(C)C)C(C)C)C(=O)N[C@@H](C)C(=O)N[C@@H](CO)C(=O)N[C@@H](Cc1cnc[nH]1)C(=O)N[C@@H](CC(C)C)C(=O)N[C@@H](CCCN=C(N)N)C(=O)N[C@@H](CCCCN)C(=O)N[C@@H](CC(C)C)C(=O)N[C@@H](CCCN=C(N)N)C(=O)N[C@@H](CCCCN)C(=O)N[C@@H](CCCN=C(N)N)C(=O)N[C@@H](CC(C)C)C(=O)N[C@@H](CC(C)C)C(=O)N[C@@H](CCCN=C(N)N)C(=O)O" , no commentary.
## Output 25

## Input Look up and report measured MIC for this entry: "CC[C@H](C)[C@H](NC(=O)[C@H](CCCN=C(N)N)NC(=O)[C@H](Cc1c[nH]c2ccccc12)NC(=O)[C@H](CCCN=C(N)N)NC(=O)[C@@H](N)CCCN=C(N)N)C(=O)N[C@H](C(=O)N[C@H](C(=O)N[C@H](C(=O)N[C@@H](CCCN=C(N)N)C(=O)N[C@H](C(=O)N[C@@H](CCCN=C(N)N)C(=O)N[C@@H](CCCN=C(N)N)C(=O)O)C(C)C)[C@@H](C)CC)C(C)C)C(C)C"
## Output 8
